assay: Human HepG2 cell viability assay in 384 well format; type: toxicity, cell-based; set-up: dose 125 nL, time 70.5 hour; concentration not given beside the values; conditions: HepG2 cells, read-out: Inhibition
ENDPOINT NAME: cytotoxicity at 70.5 h (%)

CCOc1ccc(C(=O)N2CCN(c3nccn3C)CC2)cc1 | -0.809
CCN1CCN(C2CCN(Cc3ncc(C(C)(C)C)o3)CC2)C1=O | -8.55
COc1c[nH]c(C(=O)Nc2nc(C)cs2)cc1=O | -5.81
COCC(=O)Nc1ccc2c(c1)CN(C(=O)c1ccco1)CC2 | 23.8
Cc1nnc(N2CCOC(C)(C(=O)NC3CCCC3)C2)c2ccccc12 (configuration not stated) | -3.81
O=C(CCc1ccccn1)N1CCCC1 | -3.29
N#Cc1ccnc(N2CCN(CC(O)c3c(F)cccc3F)CC2)c1 (configuration not stated) | 15.3
CCc1[nH]ncc1C(=O)N1CCCN(Cc2nccn2C(C)C)CC1 | 0.199
Cc1nsc(N2CCCN(C(=O)c3ccc4[nH]ccc4c3)CC2)n1 | -3.86
O=C(NCCc1nccs1)C1CCCN(Cc2ccco2)C1 (configuration not stated) | -2.53
Cc1ncnc2c1CCN(S(=O)(=O)C1CC1)CC2 | -13.2
COc1cccc(CNc2cnn(CC(F)F)c2)c1 | 3.29

* * *

assay: Human HepG2 cell viability assay in 384 well format; format: toxicity, cell-based; set-up: dose 125 nL, time 70.5 hour; concentration not given beside the values; conditions: HepG2 cells, read-out: Inhibition
ENDPOINT NAME: cytotoxicity at 70.5 h (%)

Cc1ncnc2c1CCN(CC(=O)N(C)C)CC2 | -5.19
CCC1=N[C@@]2(CC[C@@H]3CN(CC4CC4)C[C@@H]32)C(=O)N1CC1CC1 | -20.5
CN(C)S(=O)(=O)c1ccc(CNC(=O)C2CC(=O)N(C(C)(C)C)C2)cc1 (stereo not drawn) | -1.42
Cc1cc(N2CCC(N(C)Cc3cc(=O)c(O)co3)CC2)nc(C)n1 | -7
N[C@H]1CN(C(=O)c2ccc3[nH]c(=O)c(=O)[nH]c3c2)C[C@@H]1c1ccccc1 | -16.1
O=C(Nc1ccccc1)c1ccc(NCc2ccccc2CO)nn1 | -6.13
Cc1nnc(N2CC[C@H]3C[C@H](C(=O)N(C)C)O[C@@H]3C2)s1 | -7.89
c1nc2n(n1)CC(NCc1csc(-c3ccsc3)n1)CC2 (stereo not drawn) | -17.5
COC(=O)C1CCN(c2cc(C)nc(-c3ccncc3)n2)CC1 | -8.27
CCOCCC(=O)N1Cc2cnc(-c3ccccc3)nc2C1 | -12.5
CS(=O)(=O)N1CCN2C(=O)N(C3CCCCC3)C[C@H]2C1 | 7.82
Cc1cn2c(=O)c(-c3ccnc(N[C@@H]4CCOC4)n3)cnc2s1 | -3.69
Cc1cn2cc(C(=O)NC3CCCN(c4ncccn4)C3)ccc2n1 (stereo not drawn) | 1.08
CN(C)c1ncc(-c2ccc(F)cc2)c(C2CNCCO2)n1 (stereo not drawn) | -2.95
CC(C)Oc1ccccc1OCCN1C(=O)CCNC1=O | 22.4
CCOc1ncnc2c1CCN(S(=O)(=O)C1CC1)CC2 | 14
Cc1cc(CNC(=O)NC(C)(CO)C2CC2)c(C)s1 (stereo not drawn) | -5.03
Cc1ccc([C@H]2CN(C(C)C)C[C@@H]2NS(=O)(=O)N2CCOCC2)o1 | -5.29
O=C(O)C1(Cc2ccccc2Cl)CCN(c2ncccc2F)CC1 | -6.72
CN(C)CCCNC(=O)c1ccc(Cl)cc1Cl | -14.1
Cc1nnc(NCc2cccc(OCc3ccccn3)c2)c(C#N)c1C | -4.44
Cc1cccc(OCCC(=O)NCC2CN(C)CCO2)c1C (stereo not drawn) | -5.5
c1ccc(C2CCCN2Cc2nc(-c3cnccn3)no2)nc1 (stereo not drawn) | -6.26
